- EXPERIMENT_DESCRIPTION: Hematology assays in cynomolgus monkeys (Example 45)
- Format: in vivo
- CONDITION: day 50
- Procedure: Groups, each consisting of two male and three female monkeys, were injected subcutaneously with ISIS 416838, ISIS 416850, ISIS 416858, ISIS 416864, or ISIS 417002 in escalating doses. […] Body weights were measured weekly. […]
REPORTED_PROPERTY: basophils (%)
Give bare numbers, in %.

Give basophils for all substances that follow.
1. ISIS 417002: MOE gapmer, nucleobases 1275 to 1318 of SEQ ID NO: 1 (Table 8) (antisense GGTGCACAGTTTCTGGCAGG; MOE gapmer, wing and gap sizes not given here)
2. ISIS 416864: MOE gapmer, nucleobases 1275 to 1318 of SEQ ID NO: 1 (Table 8) (antisense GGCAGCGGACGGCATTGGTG; MOE gapmer, wing and gap sizes not given here)
3. ISIS 416858: MOE gapmer, nucleobases 1275 to 1318 of SEQ ID NO: 1 (Table 8) (antisense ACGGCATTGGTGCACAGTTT; MOE gapmer, wing and gap sizes not given here)

0.3
0.4
0.4

Give basophils for all substances that follow.
1. ISIS 416838: MOE gapmer, nucleobases 1018 to 1042 of SEQ ID NO: 1 (Table 6) (antisense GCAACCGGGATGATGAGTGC; MOE gapmer, wing and gap sizes not given here)
2. ISIS 416850: MOE gapmer, nucleobases 1275 to 1318 of SEQ ID NO: 1 (Table 8) (antisense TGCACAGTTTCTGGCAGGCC; MOE gapmer, wing and gap sizes not given here)

1: 0.3; 2: 0.3

---

- CONDITION: mouse, in vivo, sc, 50 mg/kg
e = 2'-O-(2-methoxyethyl) (MOE); d = 2'-deoxy (DNA)
I'd appreciate it if you could supply hemoglobin values for the items below.
One number for each entry, in g/dL.

# return hemoglobin for each item in the list
1. ISIS 412223: 5-10-5 MOE gapmer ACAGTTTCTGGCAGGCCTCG (sugars from the 5' end e5 d10 e5, backbone and methylation of C not given here)
2. ISIS 416867: MOE gapmer, nucleobases 1275 to 1318 of SEQ ID NO: 1 (Table 8) (antisense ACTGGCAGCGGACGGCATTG; MOE gapmer, wing and gap sizes not given here)

1. 15
2. 14

---

- CONDITION: rat, in vivo, sc, 50 mg/kg
e = 2'-O-(2-methoxyethyl) (MOE); d = 2'-deoxy (DNA)
REPORTED_PROPERTY: WBC (nL⁻¹)
Give bare numbers, in nL⁻¹.

Take a look at these entries with their results.
SUBSTANCE	WBC [nL⁻¹]
ISIS 416825: 5-10-5 MOE gapmer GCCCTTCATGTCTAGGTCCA (sugars from the 5' end e5 d10 e5, backbone and methylation of C not given here)	22
ISIS 416925: MOE gapmer, nucleobases 1275 to 1318 of SEQ ID NO: 1 (Table 8) (antisense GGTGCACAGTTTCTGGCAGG; MOE gapmer, wing and gap sizes not given here)	24

Bench note: what WBC did ISIS 417003: MOE gapmer, nucleobases 1275 to 1318 of SEQ ID NO: 1 (Table 8) (antisense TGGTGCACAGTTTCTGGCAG; MOE gapmer, wing and gap sizes not given here) show?
83

---

- CONDITION: mouse, in vivo, sc, 50 mg/kg
e = 2'-O-(2-methoxyethyl) (MOE); d = 2'-deoxy (DNA)
REPORTED_PROPERTY: Bilirubin (mg/dL)
Numbers only, in mg/dL.

# annotated cases, reported Bilirubin shown
SUBSTANCE	UNIT_LABEL	Bilirubin
ISIS 412224: 5-10-5 MOE gapmer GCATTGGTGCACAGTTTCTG (sugars from the 5' end e5 d10 e5, backbone and methylation of C not given here)	mg/dL	0.19
ISIS 416864: MOE gapmer, nucleobases 1275 to 1318 of SEQ ID NO: 1 (Table 8) (antisense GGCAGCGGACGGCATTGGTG; MOE gapmer, wing and gap sizes not given here)	mg/dL	0.19
ISIS 413481: 5-10-5 MOE gapmer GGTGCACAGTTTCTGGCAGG (sugars from the 5' end e5 d10 e5, backbone and methylation of C not given here)	mg/dL	0.18
ISIS 416855: MOE gapmer, nucleobases 1275 to 1318 of SEQ ID NO: 1 (Table 8) (antisense CATTGGTGCACAGTTTCTGG; MOE gapmer, wing and gap sizes not given here)	mg/dL	0.25

Next item in the queue.
Dear colleague, I am looking for the recorded Bilirubin of the following substance: ISIS 416854: MOE gapmer, nucleobases 1275 to 1318 of SEQ ID NO: 1 (Table 8) (antisense ATTGGTGCACAGTTTCTGGC; MOE gapmer, wing and gap sizes not given here)
0.21

---

- EXPERIMENT_DESCRIPTION: Liver function, ALT, AST, bilirubin in cynomolgus monkeys (Example 45)
- Assay type: in vivo
- CONDITION: plasma; day −14; escalating dose regimen
REPORTED_PROPERTY: ALT
Don't forget the unit after the number, please.

Recorded ALT, per entry:
SUBSTANCE	ALT
ISIS 416858: MOE gapmer, nucleobases 1275 to 1318 of SEQ ID NO: 1 (Table 8) (antisense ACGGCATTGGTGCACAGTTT; MOE gapmer, wing and gap sizes not given here)	47 IU/L
ISIS 417002: MOE gapmer, nucleobases 1275 to 1318 of SEQ ID NO: 1 (Table 8) (antisense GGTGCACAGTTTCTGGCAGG; MOE gapmer, wing and gap sizes not given here)	61 IU/L
ISIS 416850: MOE gapmer, nucleobases 1275 to 1318 of SEQ ID NO: 1 (Table 8) (antisense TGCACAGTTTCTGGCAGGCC; MOE gapmer, wing and gap sizes not given here)	54 IU/L
ISIS 416838: MOE gapmer, nucleobases 1018 to 1042 of SEQ ID NO: 1 (Table 6) (antisense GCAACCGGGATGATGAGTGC; MOE gapmer, wing and gap sizes not given here)	76 IU/L

Quick one: ALT of ISIS 416864: MOE gapmer, nucleobases 1275 to 1318 of SEQ ID NO: 1 (Table 8) (antisense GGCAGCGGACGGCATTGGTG; MOE gapmer, wing and gap sizes not given here) ?
54 IU/L

---

- Tested on: blood coagulation
- EXPERIMENT_DESCRIPTION: PT and aPTT assay in cynomolgus monkeys (Example 45)
- Type: in vivo
- CONDITION: day 85; escalating dose regimen; platelet poor plasma
For each entry below, report its aPTT ratio (INR) value.
Answers are plain numbers.

SUBSTANCE	REPORTED_PROPERTY	MEASURED_VALUE
ISIS 416838: MOE gapmer, nucleobases 1018 to 1042 of SEQ ID NO: 1 (Table 6) (antisense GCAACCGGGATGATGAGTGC; MOE gapmer, wing and gap sizes not given here)	aPTT ratio (INR)	1.22
ISIS 416858: MOE gapmer, nucleobases 1275 to 1318 of SEQ ID NO: 1 (Table 8) (antisense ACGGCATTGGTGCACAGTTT; MOE gapmer, wing and gap sizes not given here)	aPTT ratio (INR)	1.76
ISIS 416864: MOE gapmer, nucleobases 1275 to 1318 of SEQ ID NO: 1 (Table 8) (antisense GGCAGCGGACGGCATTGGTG; MOE gapmer, wing and gap sizes not given here)	aPTT ratio (INR)	1.25
ISIS 417002: MOE gapmer, nucleobases 1275 to 1318 of SEQ ID NO: 1 (Table 8) (antisense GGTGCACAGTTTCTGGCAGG; MOE gapmer, wing and gap sizes not given here)	aPTT ratio (INR)	1.20

What value of measured aPTT ratio (INR) is listed for ISIS 416850: MOE gapmer, nucleobases 1275 to 1318 of SEQ ID NO: 1 (Table 8) (antisense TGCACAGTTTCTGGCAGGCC; MOE gapmer, wing and gap sizes not given here) ?
1.99

---

- EXPERIMENT_DESCRIPTION: Hematology assays in cynomolgus monkeys (Example 45)
- Format: in vivo
- CONDITION: day 36
- Experimental: Groups, each consisting of two male and three female monkeys, were injected subcutaneously with ISIS 416838, ISIS 416850, ISIS 416858, ISIS 416864, or ISIS 417002 in escalating doses. […] Body weights were measured weekly. […]
REPORTED_PROPERTY: platelet count
Write the numeric value and follow it with the unit.

Worked cases, answers included:
SUBSTANCE	MEASURED_VALUE
ISIS 416864: MOE gapmer, nucleobases 1275 to 1318 of SEQ ID NO: 1 (Table 8) (antisense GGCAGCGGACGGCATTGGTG; MOE gapmer, wing and gap sizes not given here)	428000 µL⁻¹
ISIS 416850: MOE gapmer, nucleobases 1275 to 1318 of SEQ ID NO: 1 (Table 8) (antisense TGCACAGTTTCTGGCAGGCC; MOE gapmer, wing and gap sizes not given here)	505000 µL⁻¹
ISIS 416858: MOE gapmer, nucleobases 1275 to 1318 of SEQ ID NO: 1 (Table 8) (antisense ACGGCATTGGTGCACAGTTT; MOE gapmer, wing and gap sizes not given here)	371000 µL⁻¹

// for each substance in input: emit platelet count
1. ISIS 417002: MOE gapmer, nucleobases 1275 to 1318 of SEQ ID NO: 1 (Table 8) (antisense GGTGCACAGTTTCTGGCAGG; MOE gapmer, wing and gap sizes not given here)
2. ISIS 416838: MOE gapmer, nucleobases 1018 to 1042 of SEQ ID NO: 1 (Table 6) (antisense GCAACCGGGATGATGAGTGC; MOE gapmer, wing and gap sizes not given here)

415000 µL⁻¹
370000 µL⁻¹
